Molecular target: EGFR (Homo sapiens (Human), UniProt P00533)
Sequence (P00533 whole entry, looked up, species assumed): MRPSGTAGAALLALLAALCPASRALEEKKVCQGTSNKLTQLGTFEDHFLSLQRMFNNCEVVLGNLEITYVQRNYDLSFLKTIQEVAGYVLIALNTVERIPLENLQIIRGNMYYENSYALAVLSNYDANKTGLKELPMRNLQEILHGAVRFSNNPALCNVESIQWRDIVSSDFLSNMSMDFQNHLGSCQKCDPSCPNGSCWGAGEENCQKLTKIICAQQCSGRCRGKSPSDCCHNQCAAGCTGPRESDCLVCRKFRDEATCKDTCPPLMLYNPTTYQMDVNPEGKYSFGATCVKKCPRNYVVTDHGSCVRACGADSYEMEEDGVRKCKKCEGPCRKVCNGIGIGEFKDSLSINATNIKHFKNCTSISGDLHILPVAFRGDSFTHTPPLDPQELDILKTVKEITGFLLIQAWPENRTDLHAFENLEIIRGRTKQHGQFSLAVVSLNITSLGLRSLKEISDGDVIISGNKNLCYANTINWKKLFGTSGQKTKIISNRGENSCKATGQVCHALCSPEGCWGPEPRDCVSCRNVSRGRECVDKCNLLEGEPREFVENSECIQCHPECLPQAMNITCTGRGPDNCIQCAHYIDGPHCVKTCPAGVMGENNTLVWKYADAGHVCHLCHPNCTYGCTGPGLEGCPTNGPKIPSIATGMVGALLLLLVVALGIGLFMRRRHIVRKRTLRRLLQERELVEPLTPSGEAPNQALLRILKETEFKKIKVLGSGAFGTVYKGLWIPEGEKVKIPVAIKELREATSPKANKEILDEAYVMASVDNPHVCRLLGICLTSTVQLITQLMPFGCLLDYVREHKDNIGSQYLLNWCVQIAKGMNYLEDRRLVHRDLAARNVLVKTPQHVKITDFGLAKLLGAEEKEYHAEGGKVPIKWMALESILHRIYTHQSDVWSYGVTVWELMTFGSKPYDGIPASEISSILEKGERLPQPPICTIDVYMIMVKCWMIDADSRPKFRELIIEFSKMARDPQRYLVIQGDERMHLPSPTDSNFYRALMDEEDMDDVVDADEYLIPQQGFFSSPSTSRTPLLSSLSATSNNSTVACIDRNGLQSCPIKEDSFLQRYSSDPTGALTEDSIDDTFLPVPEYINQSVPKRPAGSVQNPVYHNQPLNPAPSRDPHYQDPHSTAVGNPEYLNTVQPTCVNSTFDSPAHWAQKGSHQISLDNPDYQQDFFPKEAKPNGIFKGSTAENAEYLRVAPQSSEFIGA
quantity_kind: IC50

Example cases with answers are listed next.
| compound | IC50 |
| --- | --- |
| C=CC(=O)N1CCC[C@H]1c1nc(-c2ccc(OCc3c(F)cccc3F)cc2)c2cnccn12 [Example 136] | 1000 to 10000 nM |
| C=CC(=O)N1CCCC[C@H]1c1nc(-c2ccc(Oc3cccc(OC)c3F)cc2)c2c(C)nccn12 [Example 27] | 100 to 1000 nM |
| C=CC(=O)N1CCC[C@H]1c1nc(-c2ccc(Oc3cccc(OC)c3)cc2)c2cnccn12 [Example 16] | 1000 to 10000 nM |
| C=CC(=O)N1CCC[C@@H](c2nc(-c3ccc(Oc4cccc(OC)c4F)cc3)c3cnccn23)C1 [Example 1] | 100 to 1000 nM |

Switching to the query record.
Here C=CC(=O)N1CCC[C@H]1c1nc(-c2ccc(Oc3cccc(F)c3F)cc2)c2cnccn12 [Example 20] was tested on EGFR (Homo sapiens (Human), UniProt P00533), and its IC50 came to 1000 to 10000 nM
